Test system: HepG2 cells
procedure.summary: Cytotoxicity CC50, HepG2, Alamar Blue
assay.setup: read-out: HepG2 CC50; 48 h
Consider the following compounds; for each one, report its CC50.
Answer with the value and then the unit.

Data request: Entry C=C1C(=O)OC2CC(C)C3C=CC(=O)C3(C)C(OC(C)=O)C12 (stereo not shown) [Compound 701154] has what CC50?
Data returned: 4.2 µM

Data request: Entry CC(=O)OC1C(C)OC(OC2C(OC(=O)C3CC[C@@H]4[C@H](C3)OC3(CC(OC(=O)/C=C/c5ccccc5)[C@@H](C)CO3)C4(O)CO)OC(C)C(O)C2OC(C)=O)C(O)C1O (stereo partly shown) has what CC50?
Data returned: 15 µM

Data request: Entry C=C1C(=O)OC2CC(C)C3C=CC(=O)C3(C)C(OC(C)=O)C12 (stereo not shown) [Compound 701155] has what CC50?
Data returned: 1.1 µM

Data request: Entry C=C1C(=O)OC2CC(C)C3C=CC(=O)C3(C)C(OC(=O)C(C)CC)C12 (stereo not shown) has what CC50?
Data returned: 0.81 µM

----------
procedure.summary: Cytotoxicity CC50, differentiated THP-1, Alamar Blue
Type: cell-based, human
assay.setup: human, THP1 CC50
Consider the following compounds; for each one, report its CC50 at 48 h.
State just the number; it will be interpreted in µM.

Data request: Entry CC1=CC(O)(CC(C)C2(C)CC=C3C4=CCC5C(C)(C)C(=O)CCC5(C)C4CCC32C)OC1=O (stereo not drawn) has what CC50 at 48 h?
Data returned: 17

Data request: Entry CC1=CC(O)(CC(C)C2(C)CCC3C4=CCC5C(C)(CCC(O)C5(C)C)C4=CCC32C)OC1=O (stereo not drawn) has what CC50 at 48 h?
Data returned: 27

Data request: Entry CC1=CC(O)(CC(C)C2(C)CC=C3C4=CCC5C(C)(C)C(O)CCC5(C)C4CCC32C)OC1=O (stereo not drawn) has what CC50 at 48 h?
Data returned: 17

----------
Tested on: HepG2 cells
procedure.summary: in vitro
assay.setup: human, 48 h, pH 7
Method: Initial hits from the parasite panel screen were taken forward in log concentration versus normalised response assays to estimate the half maximal effective concentration (EC50) in hit species as well as the half maximal cytotoxic concentrations (CC50) in the human hepatoma cell line HepG2 as a preliminary test for selectivity. […] EC50 values were determined by serial two-fold dilution of each compound in 96 well plates. […]
Consider the following molecules; for each one, report its CC50.
State just the number; it will be interpreted in µM.

Data request: Entry COC(=O)C1=COC(O)C2C1CC(OC(=O)/C=C/c1ccc(O)cc1)C2C (centres unmarked) has what CC50?
Data returned: 28

Data request: Entry CC1(C)OC2CC(=O)C=CC2(c2cc(=O)c3c(O)cc(O)cc3o2)O1 (centres unmarked) has what CC50?
Data returned: 5.3

----------
System: activated monocyte cell line (THP-1)
procedure.summary: Cytotoxicity CC50, differentiated THP-1, Alamar Blue
Format: cell-based, human
assay.setup: differentiated THP-1, 48 h; read-out: THP1 CC50
parameter: CC50 (nM)
State just the number; it will be interpreted in nM.

Data request: Entry C=C1C(=O)OC2CC(C)C3C=CC(=O)C3(C)C(OC(C)=O)C12 (stereo not drawn) [Compound 701154] has what CC50?
Data returned: 1500

Data request: Entry C/C(=C/C(=O)CC(C)C1CCC2(C)C3=CCC4C(C)(C)C(=O)CCC4(C)C3CCC12C)C(=O)O (stereo not drawn) [Compound 700240] has what CC50?
Data returned: 14000

Data request: Entry C=C1C(=O)OC2CC(C)C3C=CC(=O)C3(C)C(OC(C)=O)C12 (stereo not drawn) [Compound 701155] has what CC50?
Data returned: 380
